System: RXF 393 renal
Assay: NCI-60 one-dose screen, 48 h
Conditions: 10 µM unless noted
Description: Cells are grown in 96 well plates and exposed to the test compound for 48 hours. Compounds are tested at a single concentration, which is 10^-5 M for most compounds. The reported endpoint is percent growth (GI% or GIPRCNT), where numbers from 0 - 100% represent growth inhibition, and numbers from -100% - 0 represent cell death. For example, a value of 40 represents 60% growth inhibition. A value of 0 means no net growth occurred over the course of the experiment. […]
The panel holds about 83,000 compounds, 20% with a hit somewhere; the sample as a whole holds those more often. Calls of active or inactive are those of the source. The calls were made as follows: active = growth percent below 10; inactive = the rest.
Outcome codes: active, inactive

[[record]]
compound = "O=C(c1cc2ccccc2o1)c1nn(-c2ccccc2)/c(=N/N=Cc2cn(-c3ccccc3)nc2-c2cc3ccccc3oc2=O)s1"
label_class = "inactive"

[[record]]
compound = "O=C1/C(=C\\c2cn(-c3ccccc3)nc2-c2ccc(-c3cccs3)cc2)CCc2ccccc21"
label_class = "inactive"

[[record]]
compound = "COc1cc(-c2csc(NC(=O)c3cc(-n4cnc(C)c4)cc(C(F)(F)F)c3)n2)cc(OC)c1OC"
label_class = "inactive"

[[record]]
compound = "O=[N+]([O-])c1ccc(-c2nc(N3CCOCC3)c3c4c(sc3n2)CCCC4)cc1"
label_class = "inactive"

[[record]]
compound = "COC(=O)c1c2c(c(C)[n+]([O-])c1C)C(=O)C=C(NCc1ccc(Br)cc1)C2=O"
label_class = "active"

[[record]]
compound = "CC(=O)Nc1nc2ccc(NS(=O)(=O)c3cccc4c(N(C)C)cccc34)cc2[nH]1"
label_class = "inactive"

[[record]]
compound = "Cc1ccc(-c2nc3nc(-c4ccccc4)nc(N4CCNCC4)c3o2)cc1"
label_class = "active"

[[record]]
compound = "O=C1c2cccnc2C(=O)c2c1c(C(=O)NCCCN1CCCCC1)c1ccccn21"
label_class = "active"

[[record]]
compound = "CN(CCn1sc(=O)n(Cc2ccccc2)c1=O)Cc1ccc2c(Cl)cc(Cl)c(O)c2n1"
label_class = "inactive"

[[record]]
compound = "O=C(OCc1ccc2cccc(O)c2n1)N1CCN(C(=O)c2cc3cc(F)ccc3[nH]2)CC1"
label_class = "active"

[[record]]
compound = "COc1ccc2cc(-c3ccc(NC(C)=O)c(=O)o3)ccc2c1"
label_class = "inactive"

[[record]]
compound = "Cc1ccc(-c2csc(NC(=O)CN3CCN(c4cc5c(cc4F)c(=O)c(C(=O)O)cn5C4CC4)CC3)n2)cc1"
label_class = "inactive"

[[record]]
compound = "Cc1ccc2c3c(c(=O)[nH]c2c1)C1(C(C#N)=C(N)O3)c2cc(Br)ccc2-c2ccc(Br)cc21"
label_class = "active"

[[record]]
compound = "CC1=Nc2cnc(Nc3ccc(OCCN4CCCC4)cc3)nc2Nc2ccccc21"
label_class = "inactive"

[[record]]
compound = "CC(=O)[C@@H]1CCC=C2CC[C@]3(C)[C@@H](CC[C@@H]4[C@@]5(C)CCCNC(C)(C)[C@@H]5CC[C@]43C)[C@H]21"
label_class = "active"

[[record]]
compound = "O=C1/C(=C/c2ccc(F)cc2)COc2ccc(O)cc21"
label_class = "inactive"

[[record]]
compound = "O=C1/C(=C/c2ccc(Cl)cc2)COc2ccc(O)cc21"
label_class = "inactive"

[[record]]
compound = "Cc1cc(N)c2cc(NC(=O)/C=C\\c3ccccc3Cl)ccc2n1"
label_class = "active"

[[record]]
compound = "COc1cc(N2C(=O)[C@H](O)C2c2ccc(SC)cc2)cc(OC)c1OC (some centres not stated)"
label_class = "inactive"

[[record]]
compound = "Oc1c(Cl)cc(Cl)cc1/C=N/Nc1nnc(N/N=C/c2cc(Cl)cc(Cl)c2O)c2ccccc12"
label_class = "active"

[[record]]
compound = "O=C1/C(=C/c2ccc(Cl)c(Cl)c2)CN(C(=O)C(Cl)Cl)C/C1=C\\c1ccc(Cl)c(Cl)c1"
label_class = "active"

[[record]]
compound = "Fc1ccc2[nH]cc(-c3nonc3-c3c[nH]c4ccc(Br)cc34)c2c1"
label_class = "inactive"

[[record]]
compound = "COc1cccc(CNc2ncnc3c2ncn3C2OC(CO)C(O)C2O)c1O (configuration not stated)"
label_class = "active"

[[record]]
compound = "Oc1ccc(CCn2c(O)c(/C=C3\\CN=c4ccccc4=N3)sc2=S)cc1"
label_class = "inactive"

[[record]]
compound = "CCSc1nc(NC)c2cc(-c3ccc(C(F)(F)F)cc3)ccc2n1"
label_class = "inactive"

[[record]]
compound = "C=C(CNCCc1ccc(O)cc1)[C@@H]1CC[C@]2(CO)CC[C@]3(C)[C@H](CC[C@@H]4[C@@]5(C)CCC(NCCO)C(C)(C)[C@@H]5CC[C@]43C)[C@@H]12 (some centres not stated)"
label_class = "active"

[[record]]
compound = "CS(=O)(=O)Nc1cc(-c2ccc3ncnc(Nc4ccc5c(cnn5Cc5ccccn5)c4)c3c2)cnc1Cl"
label_class = "inactive"

[[record]]
compound = "Cn1c(=O)c2[nH]c(N/N=C/c3ccccc3Br)nc2n(C)c1=O"
label_class = "inactive"

[[record]]
compound = "COc1ccc(C(=O)Nc2cccc(C3CC(=O)c4c(cc(OC)c(OC)c4OC)O3)c2)cc1 (configuration not stated)"
label_class = "active"

[[record]]
compound = "CCCC(=O)NC(c1ccc2c(c1)OCO2)c1ccc2cccnc2c1O (configuration not stated)"
label_class = "inactive"

[[record]]
compound = "COc1cc(/C=C/C(=O)c2cccc(Nc3nc(Nc4ccccc4)nc(Nc4ccccc4)n3)c2)cc(OC)c1OC"
label_class = "active"

[[record]]
compound = "C=C(C)[C@@H]1CC[C@]2(C(=O)NCCNCCN)CC[C@]3(C)[C@H](CC[C@@H]4[C@@]5(C)C/C(=C/c6ccncc6)C(=O)C(C)(C)[C@@H]5CC[C@]43C)[C@@H]12"
label_class = "inactive"

[[record]]
compound = "CC(=O)N(N=Nc1ccccc1)c1cccc2ccccc12"
label_class = "inactive"

[[record]]
compound = "Cc1ccc(Cl)cc1Nc1nc(C(F)(F)F)ccc1C(=O)N/N=C/c1cccnc1"
label_class = "inactive"

[[record]]
compound = "Cc1cccc(N2CCN(CC(O)COc3ccc(Cl)cc3)CC2)c1 (configuration not stated)"
label_class = "inactive"

[[record]]
compound = "CN(C)c1ccc(Nc2cc(-c3cccc(OC(F)(F)F)c3)nc3ccc(N4CCCC4)cc23)cc1"
label_class = "inactive"

[[record]]
compound = "Cc1ccc(-c2cc(-c3ccc(Cl)cc3)nc(NC(=O)c3cccnc3)n2)cc1"
label_class = "inactive"

